- TEST: Inhibition of Saccharomyces cerevisiae alpha-glucosidase pre-incubated for 15 mins before p-nitrophenyl alpha-D-glucopyranoside substrate addition and measured after 30 mins by spectrophotometry
Quick reference for IC50 among some compounds
ENDPOINT_NAME: IC50

O=C1/C(=N\N=C\c2coc3cc(O)ccc3c2=O)c2ccccc2N1Cc1ccccc1Cl | 5.51 µM
O=C1/C(=N\N=C\c2coc3cc(O)ccc3c2=O)c2ccccc2N1Cc1ccccc1F | 4.57 µM
O=C1Nc2ccccc2/C1=N/N=C/c1coc2ccccc2c1=O | 16.2 µM
O=C1/C(=N\N=C\c2coc3cc(O)ccc3c2=O)c2ccccc2N1Cc1ccc(Cl)cc1 | 3.9 µM
O=C1/C(=N\N=C\c2coc3ccccc3c2=O)c2ccccc2N1Cc1cccc(F)c1 | 16 µM
O=C1/C(=N\N=C\c2coc3ccccc3c2=O)c2ccccc2N1Cc1ccccc1F | 14 µM
O=C1/C(=N\N=C\c2coc3cc(O)ccc3c2=O)c2ccccc2N1Cc1ccccc1Br | 4.73 µM

###

- TEST: Inhibition of Saccharomyces cerevisiae alpha-glucosidase pre-incubated for 15 mins before p-nitrophenyl alpha-D-glucopyranoside substrate addition and measured after 30 mins by spectrophotometry
Each entry belongs to exactly one class, chosen by where its IC50 falls: bin 0: < 4 µM; bin 1: ≥ 4 µM and < 10 µM; bin 2: ≥ 10 µM

O=C1/C(=N\N=C\c2coc3ccccc3c2=O)c2ccccc2N1Cc1ccccc1Cl | bin 2
O=C1/C(=N\N=C\c2coc3ccccc3c2=O)c2ccccc2N1Cc1ccc(Cl)cc1 | bin 2
O=C1/C(=N\N=C\c2coc3cc(O)ccc3c2=O)c2ccccc2N1Cc1ccc(Cl)cc1Cl | bin 1
CN1C(=O)/C(=N\N=C\c2coc3ccccc3c2=O)c2ccccc21 | bin 2
O=C1/C(=N\N=C\c2coc3cc(O)ccc3c2=O)c2ccccc2N1Cc1cccc(F)c1 | bin 1
O=C1/C(=N\N=C\c2coc3cc(O)ccc3c2=O)c2ccccc2N1Cc1ccc(Br)cc1 | bin 0
O=C1/C(=N\N=C\c2coc3cc(O)ccc3c2=O)c2ccccc2N1Cc1ccc(F)cc1 | bin 0
O=C1/C(=N\N=C\c2coc3ccccc3c2=O)c2ccccc2N1Cc1ccc(Br)cc1 | bin 1
